Attribution: the Immune Epitope Database (IEDB)

target: HLA-A*11:01; assay: IEDB peptide-MHC binding, purified MHC/competitive/radioactivity; filed as Kd, often an IC50 or EC50 that approximates it; bounds were set here for any values at or beyond the usual limits of such assays; conditions: source organism: Dengue virus 1 Brazil/97-11/1997
pKd: −log10 of the molar value.

{"POLYMER_SEQUENCE": "SSMLNIMNR", "TESTED_SYSTEM": "HLA-A*11:01", "pKd": 7.98}

----------
target: HLA-B*46:01; test: IEDB peptide-MHC binding, purified MHC/direct/fluorescence; filed as Kd, often an IC50 or EC50 that approximates it; bounds were set here for any values at or beyond the usual limits of such assays; conditions: source organism: West Nile virus

{"POLYMER_SEQUENCE": "LMNDPGAPW", "QUANTITY_UNIT": "µM", "RELATION_SYMBOL": "=", "Kd": 8.98}
{"POLYMER_SEQUENCE": "FVDVGVSAL", "QUANTITY_UNIT": "µM", "RELATION_SYMBOL": "≥", "Kd": 20}

----------
target: HLA-A*02:03; experiment: IEDB peptide-MHC binding, purified MHC/competitive/radioactivity; filed as Kd, often an IC50 or EC50 that approximates it; bounds were set here for any values at or beyond the usual limits of such assays; settings: source organism: Dengue virus 2 Jamaica/1409/1983

{"POLYMER_SEQUENCE": "TLILAPTRVV", "QUANTITY_UNIT": "nM", "Kd": 42.6}
{"POLYMER_SEQUENCE": "TMTDDIGMGV", "QUANTITY_UNIT": "nM", "Kd": 7.59}

----------
target: HLA-A*68:02; assay: IEDB peptide-MHC binding, purified MHC/competitive/fluorescence; filed as Kd, often an IC50 or EC50 that approximates it; bounds were set here for any values at or beyond the usual limits of such assays; conditions: source organism: Entamoeba dispar SAW760
PROPERTY_NAME: Kd

{"POLYMER_SEQUENCE": "MYIFLPVML", "REPORTED_VALUE": "94.1 nM"}

----------
target: HLA-B*46:01; experiment: IEDB peptide-MHC binding, purified MHC/competitive/fluorescence; filed as Kd, often an IC50 or EC50 that approximates it; bounds were set here for any values at or beyond the usual limits of such assays; settings: source organism: Reston ebolavirus
pKd: −log10 of the molar value.
PROPERTY_NAME: pKd

{"POLYMER_SEQUENCE": "LPRERFRKT", "PROPERTY_NAME": "pKd", "REPORTED_VALUE": "≤ 4.70"}

----------
target: HLA-A*24:03; assay: IEDB peptide-MHC binding, purified MHC/direct/fluorescence; filed as Kd, often an IC50 or EC50 that approximates it; bounds were set here for any values at or beyond the usual limits of such assays; details: source organism: Escherichia coli O157:H7
pKd: −log10 of the molar value.
PROPERTY_NAME: pKd

{"POLYMER_SEQUENCE": "VTRQIHNPR", "REPORTED_VALUE": "≤ 4.70"}

----------
target: HLA-A*31:01; test: IEDB peptide-MHC binding, purified MHC/direct/fluorescence; filed as Kd, often an IC50 or EC50 that approximates it; bounds were set here for any values at or beyond the usual limits of such assays; details: source organism: Haemophilus influenzae
pKd: −log10 of the molar value.

{"POLYMER_SEQUENCE": "EIKFNDITF", "pKd": "≤ 4.70"}
{"POLYMER_SEQUENCE": "YATVAGHEG", "pKd": "≤ 4.70"}

----------
molecular target: HLA-A*02:01; assay: IEDB peptide-MHC binding, purified MHC/competitive/fluorescence; bounds were set here for any values at or beyond the usual limits of such assays; conditions: source organism: Zaire ebolavirus
As shown below, each of these sequences has a reported IC50 value.

{"POLYMER_SEQUENCE": "IQVHAEQGL", "TESTED_SYSTEM": "HLA-A*02:01", "IC50": "≥ 105 µM"}
{"POLYMER_SEQUENCE": "RSNTTGKLI", "TESTED_SYSTEM": "HLA-A*02:01", "IC50": "≥ 805 µM"}
{"POLYMER_SEQUENCE": "NITDKIDQI", "TESTED_SYSTEM": "HLA-A*02:01", "IC50": "25.3 µM"}
{"POLYMER_SEQUENCE": "FPQLSAIAL", "TESTED_SYSTEM": "HLA-A*02:01", "IC50": "≥ 179 µM"}
{"POLYMER_SEQUENCE": "SSLPPLESD", "TESTED_SYSTEM": "HLA-A*02:01", "IC50": "≥ 170 µM"}
{"POLYMER_SEQUENCE": "ENSSAMVQV", "TESTED_SYSTEM": "HLA-A*02:01", "IC50": "≥ 277 µM"}
{"POLYMER_SEQUENCE": "MDYHKILTA", "TESTED_SYSTEM": "HLA-A*02:01", "IC50": "≥ 114 µM"}
{"POLYMER_SEQUENCE": "ARFSGLLIV", "TESTED_SYSTEM": "HLA-A*02:01", "IC50": "≥ 461 µM"}
{"POLYMER_SEQUENCE": "GVATDVPSA", "TESTED_SYSTEM": "HLA-A*02:01", "IC50": "1.46 µM"}
{"POLYMER_SEQUENCE": "QVNNLEEIC", "TESTED_SYSTEM": "HLA-A*02:01", "IC50": "≥ 112 µM"}
{"POLYMER_SEQUENCE": "ITAASLPKT", "TESTED_SYSTEM": "HLA-A*02:01", "IC50": "4.9 µM"}
{"POLYMER_SEQUENCE": "TVAPPAPVY", "TESTED_SYSTEM": "HLA-A*02:01", "IC50": "≥ 119 µM"}
{"POLYMER_SEQUENCE": "NLEHGLFPQ", "TESTED_SYSTEM": "HLA-A*02:01", "IC50": "≥ 304 µM"}
{"POLYMER_SEQUENCE": "IGLAWIPYF", "TESTED_SYSTEM": "HLA-A*02:01", "IC50": "5.68 µM"}
{"POLYMER_SEQUENCE": "VVFSTSDGK", "TESTED_SYSTEM": "HLA-A*02:01", "IC50": "≥ 387 µM"}
{"POLYMER_SEQUENCE": "VLFDLDEDD", "TESTED_SYSTEM": "HLA-A*02:01", "IC50": "3.74 µM"}
{"POLYMER_SEQUENCE": "TTLATISTS", "TESTED_SYSTEM": "HLA-A*02:01", "IC50": "6.62 µM"}

----------
target: HLA-B*15:01; assay: IEDB peptide-MHC binding, purified MHC/competitive/fluorescence; filed as Kd, often an IC50 or EC50 that approximates it; bounds were set here for any values at or beyond the usual limits of such assays; conditions: source organism: Bacillus cereus G9241
pKd: −log10 of the molar value.

{"POLYMER_SEQUENCE": "STLRTLKPY", "TESTED_SYSTEM": "HLA-B*15:01", "pKd": 6.83}

----------
molecular target: HLA-A*02:03; test: IEDB peptide-MHC binding, purified MHC/competitive/radioactivity; filed as Kd, often an IC50 or EC50 that approximates it; bounds were set here for any values at or beyond the usual limits of such assays; settings: source organism: Mammarenavirus brazilense
pKd: −log10 of the molar value.

{"POLYMER_SEQUENCE": "SNPNLFWAV", "pKd": 5.21}

----------
target: HLA-B*40:02; assay: IEDB peptide-MHC binding, purified MHC/competitive/radioactivity; filed as Kd, often an IC50 or EC50 that approximates it; bounds were set here for any values at or beyond the usual limits of such assays; conditions: source organism: Lymphocytic choriomeningitis virus (strain Armstrong)

{"POLYMER_SEQUENCE": "TEAILQLGDL", "Kd": "936 nM"}

----------
biological target: HLA-A*02:03; assay: IEDB peptide-MHC binding, purified MHC/competitive/fluorescence; filed as Kd, often an IC50 or EC50 that approximates it; bounds were set here for any values at or beyond the usual limits of such assays; conditions: source organism: Vibrio vulnificus YJ016
pKd: −log10 of the molar value.
PROPERTY_NAME: pKd

{"POLYMER_SEQUENCE": "IALPVAWLF", "TESTED_SYSTEM": "HLA-A*02:03", "REPORTED_VALUE": "≤ 4.70"}

----------
biological target: HLA-A*02:06; test: IEDB peptide-MHC binding, purified MHC/competitive/fluorescence; filed as Kd, often an IC50 or EC50 that approximates it; bounds were set here for any values at or beyond the usual limits of such assays; settings: source organism: Vaccinia virus Copenhagen

{"POLYMER_SEQUENCE": "ALYSYASAK", "Kd [nM]": 271}
